Collected MIC values appear next to each entry.
- Tested on: Escherichia coli strain ATCC25922
- protocol notes: Standard microdilution MIC assay, E. coli
- Type: cell-based
measurement type: MIC

molecule: C=C[C@@H](CCNC(=N)COC)NCc1ccc(-n2cc3cc(-c4cc(CCC[C@H](C)N)cc(Cl)c4F)[nH]c3nc2=O)cc1 [Compound 53]
measurement type: MIC
assay result: ≤ 16 µg/mL
--
molecule: C=C[C@H](NCCCNC(C)=N)c1ccc(-n2cc3cc(-c4cc(CCC[C@@H](N)CF)cc(Cl)c4F)[nH]c3nc2=O)cc1 [Compound 179]
measurement type: MIC
assay result: ≤ 16 µg/mL
--
molecule: CSc1cc(-n2cc3cc(-c4cc(CCC[C@@H]5COCCN5)cc(Cl)c4F)[nH]c3nc2=O)ccc1[C@@H]1CCC[C@@H](CCNC(C)=N)N1 [Compound 260]
measurement type: MIC
assay result: ≤ 16 µg/mL
--
molecule: CC(=N)NCCCNCc1ccc(-n2cc3cc(-c4cc(CCC[C@H](C)N)cc(Cl)c4F)[nH]c3nc2=O)cc1F [Compound 76]
measurement type: MIC
assay result: ≤ 16 µg/mL
--
molecule: C[C@H](NCCCNC(=N)CF)c1ccc(-n2cc3cc(-c4cc(CCC[C@@H](N)CO)cc(Cl)c4F)[nH]c3nc2=O)cc1F [Compound 125]
measurement type: MIC
assay result: ≤ 16 µg/mL
--
molecule: CSc1cc(-n2cc3cc(-c4cc(CCC[C@@H](N)CO)cc(Cl)c4F)[nH]c3nc2=O)ccc1[C@@H]1CCC[C@@H](CCNC(C)=N)N1 [Compound 116]
measurement type: MIC
assay result: ≤ 16 µg/mL
--
molecule: CC(=N)NCC[C@@H]1CCC[C@@H](c2ccc(-n3cc4cc(-c5cc(CCC[C@@H](N)CF)cc(Cl)c5F)[nH]c4nc3=O)cc2F)N1 [Compound 170]
measurement type: MIC
assay result: ≤ 16 µg/mL
--
molecule: C=C[C@@H](N)CCCc1cc(Cl)c(F)c(-c2cc3cn(-c4ccc(CN[C@@H](C=C)CCNC(=N)CF)cc4)c(=O)nc3[nH]2)c1 [Compound 37]
measurement type: MIC
assay result: ≤ 16 µg/mL
--
molecule: CC(=N)NCC[C@@H]1CCC[C@@H](c2ccc(-n3cc4cc(-c5cc(CCC[C@@H](N)CF)cc(Cl)c5F)[nH]c4nc3=O)cc2Cl)N1 [Compound 176]
measurement type: MIC
assay result: ≤ 16 µg/mL
--
molecule: COC[C@H](N)CCCc1cc(-c2cc3cn(-c4ccc([C@@H]5CCC[C@@H](CCNC(C)=N)N5)cc4)c(=O)nc3[nH]2)c(F)c(C(F)(F)F)c1 [Compound 190]
measurement type: MIC
assay result: ≤ 16 µg/mL
--
molecule: C=CC(CCNC(C)=N)NCc1ccc(-n2cc3cc(-c4cc(CCC(C)(C)CN)cc(Cl)c4F)[nH]c3nc2=O)cc1 (stereo not drawn) [Compound 26]
measurement type: MIC
assay result: ≤ 16 µg/mL
--
molecule: CC(=N)NCC[C@H](CO)NCc1ccc(-n2cc3cc(-c4cc(CCC[C@@H](N)CF)cc(Cl)c4F)[nH]c3nc2=O)cc1 [Compound 100]
measurement type: MIC
assay result: ≤ 16 µg/mL

----------
- Test system: Escherichia coli strain ATCC25922
- protocol notes: Standard microdilution MIC assay, E. coli
- Format: cell-based
Collected MIC values appear next to each entry.

record smiles: CSc1cc(-n2cc3cc(-c4cc(CCC[C@H](C)N)cc(Cl)c4F)[nH]c3nc2=O)cc(F)c1[C@@H]1CCC[C@@H](CCNC(C)=N)N1
MIC: ≤ 16 µg/mL
//
record smiles: CC(=N)NCCCNCc1ccc(-n2cc3cc(-c4cc(CCC(C)(C)CN)cc(Cl)c4F)[nH]c3nc2=O)cc1F
MIC: ≤ 16 µg/mL
//
record smiles: C[C@H](N)CCCc1cc(Cl)c(F)c(-c2cc3cn(-c4ccc([C@H]5CNC[C@@H](CCNC(=N)CF)N5)cc4)c(=O)nc3[nH]2)c1
MIC: ≤ 16 µg/mL
//
record smiles: CC(=N)NCC[C@H](CNc1ncc[nH]1)NCc1ccc(-n2cc3cc(-c4cc(CCC[C@H](C)N)cc(Cl)c4F)[nH]c3nc2=O)cc1
MIC: ≤ 16 µg/mL
//
record smiles: CC(=N)NCC[C@@H]1CCC[C@@H](c2ccc(-n3cc4cc(-c5cc(CCC[C@H](C)N)cc(Cl)c5F)[nH]c4nc3=O)cc2)N1CC(C)C
MIC: ≤ 16 µg/mL
//
record smiles: COc1cc(-n2cc3cc(-c4cc(CCC[C@@H](N)CF)cc(C(F)(F)F)c4)[nH]c3nc2=O)ccc1[C@@H]1CCC[C@@H](CCNC(C)=N)N1
MIC: ≤ 16 µg/mL
//
record smiles: CSc1cc(-n2cc3cc(-c4cc(CCC[C@@H](N)C5CC5)cc(OC(F)(F)F)c4F)[nH]c3nc2=O)cc(F)c1[C@@H]1CCC[C@@H](CCNC(C)=N)N1
MIC: ≤ 16 µg/mL
